assay: refractive index (Na D-line) (dimensionless); wn = mass fraction of the nth substance listed; details: 343.15 K; 101 kPa; Liquid; Standard Abbe refractometry; w1 = 0.1
measured_metric: refractive index

{"columns": ["compound", "reported"],
 "data": [
  ["CC(O)CNCC(C)O (centres undefined) [N-(2-hydroxypropyl)-2-hydroxy-1-propanamine] + O", 1.33899],
  ["OCCNCCO [diethanolamine] + O", 1.3382],
  ["CC(O)CN (centres undefined) [1-amino-2-propanol] + O", 1.33713],
  ["CC(O)CN(CC(C)O)CC(C)O (centres undefined) [triisopropanolamine] + O", 1.33943]
]}
